These entries and their values trace back to PubChem BioAssay (NCI).

Measured growth, listed per entry for reference.
- Tested on: MOLT-4 leukemia
- test.description: NCI-60 one-dose screen, 48 h (100 = growth as untreated, 0 = no growth, -100 = all killed)
- test.conditions: 10 µM unless noted
The panel holds about 83,000 compounds, 20% with a hit somewhere; the sample as a whole holds those more often.
Numbers only; they are read as %.

Consider the reported growth for these compounds:
• COc1ccc(/C=C/C(=O)Nc2cc(/C=C\c3cc(OC)c(OC)c(OC)c3)cc(OC)c2OC)cc1OC = -13.9
• NC(=O)CSSCC(N)=O = 76.8
• O=C(CCN1CCCC1)c1ccc([N+](=O)[O-])cc1 = 113
• COc1ccc(/C=C/c2nc(Nc3ccc(Cl)cc3)c3ccccc3n2)cc1 = 32.1
• C=C1C(=O)O[C@H]2[C@H]1CC/C(COC(=O)NCC(C)c1ccc(CC(C)C)cc1)=C\CC[C@@]1(C)O[C@@H]21 (stereo not given in full) = -8.4
• Oc1ccc(OCCOc2ccc(O)cc2)cc1 = 60.8
• O=C(Nc1ccccc1)Nc1ccc2cc3ccc(NC(=O)Nc4ccccc4)cc3nc2c1 = -27.6
• CCSCC1CC(O)(c2ccccc2)CC(c2ccc(F)cc2)O1 (stereo not given) = -11.9
• O=C(c1nc2ccccc2[nH]1)C1C(c2ccc(Cl)cc2)C2CC3CCCC[C@H]3N2[C@@]12C(=O)Nc1cc(Cl)ccc12 (stereo not given in full) = 7.41

Would you kindly look at the next entry?
Identify the measured growth of COc1ccc(/C=C/c2nc(Nc3ccc(S(=O)(=O)Nc4nc(C)cc(C)n4)cc3)c3ccccc3n2)cc1 for MOLT-4 leukemia.
65.7
